- SYSTEM: ANO1 (anoctamin1, TMEM16A) (Homo sapiens, UniProt Q5XXA6)
- Sequence (Q5XXA6 whole entry): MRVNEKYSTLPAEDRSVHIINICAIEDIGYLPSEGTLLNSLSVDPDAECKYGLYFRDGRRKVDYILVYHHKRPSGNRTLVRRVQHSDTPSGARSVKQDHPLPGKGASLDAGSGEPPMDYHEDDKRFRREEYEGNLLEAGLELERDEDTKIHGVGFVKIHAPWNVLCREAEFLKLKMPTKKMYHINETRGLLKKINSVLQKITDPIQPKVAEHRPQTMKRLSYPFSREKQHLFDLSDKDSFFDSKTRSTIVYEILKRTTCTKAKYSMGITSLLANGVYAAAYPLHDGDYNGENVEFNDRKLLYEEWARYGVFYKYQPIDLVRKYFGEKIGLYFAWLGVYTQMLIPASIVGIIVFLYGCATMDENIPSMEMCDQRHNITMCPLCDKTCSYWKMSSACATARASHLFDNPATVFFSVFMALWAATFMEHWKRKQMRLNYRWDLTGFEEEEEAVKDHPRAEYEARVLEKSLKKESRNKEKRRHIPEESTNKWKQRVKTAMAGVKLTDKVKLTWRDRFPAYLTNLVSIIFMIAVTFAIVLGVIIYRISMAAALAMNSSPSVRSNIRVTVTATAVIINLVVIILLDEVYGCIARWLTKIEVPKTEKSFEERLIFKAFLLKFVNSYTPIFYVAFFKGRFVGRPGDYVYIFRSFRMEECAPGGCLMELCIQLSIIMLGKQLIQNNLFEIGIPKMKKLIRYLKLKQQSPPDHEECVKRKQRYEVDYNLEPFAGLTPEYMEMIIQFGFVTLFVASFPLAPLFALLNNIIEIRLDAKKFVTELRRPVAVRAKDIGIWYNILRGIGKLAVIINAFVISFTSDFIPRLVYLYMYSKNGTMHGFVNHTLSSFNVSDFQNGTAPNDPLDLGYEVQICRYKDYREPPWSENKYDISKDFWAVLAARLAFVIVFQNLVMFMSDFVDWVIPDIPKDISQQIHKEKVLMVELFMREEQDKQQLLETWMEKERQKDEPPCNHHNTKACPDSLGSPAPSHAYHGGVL
- ASSAY TEXT: YFP fluorescence quenching assay in FRT cells expressing human ANO1; confirmed by short-circuit current (PC-3 cells IC50 […])
PARAMETER MEASURED: pIC50
API: returns pIC50 as number; meaning -log10 of concentration in mol/L.

Hey, ANO1 (anoctamin1, TMEM16A) (Homo sapiens, UniProt Q5XXA6) data for C=CC1=C(C)C2=Cc3c(C=C)c(C)c4[n]3[Fe]([Cl])[n]3c(c(C)c(CCC(=O)O)c3=CC3=NC(=C4)C(C)=C3CCC(=O)O)=CC1=N2 [hemin] : pIC50 came out at 6.29
